# Test system: PPARa:RXRa (NR concentration 270 nM, RXRa partner concentration 90 nM)
# ASSAY TEXT: PBM binding z-score (relative to random genomic background probes); higher = stronger binding; sequences stand for … in GC…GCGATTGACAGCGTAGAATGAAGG
Returns the class for an entry based on its PBM binding z-score. Class ranges: bottom bin (below 2), middle bin (2 to below 5), top bin (5 or more)

// below: answered sequences
[
  {
    "SEQUENCE CODE": "TCGAGTAGGTTACCAATGGAGCATTCAGCTTTCT",
    "LABEL": "bottom bin"
  },
  {
    "SEQUENCE CODE": "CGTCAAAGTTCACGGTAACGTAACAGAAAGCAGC",
    "LABEL": "top bin"
  },
  {
    "SEQUENCE CODE": "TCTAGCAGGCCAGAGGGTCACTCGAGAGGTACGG",
    "LABEL": "middle bin"
  },
  {
    "SEQUENCE CODE": "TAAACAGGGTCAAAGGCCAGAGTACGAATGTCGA",
    "LABEL": "top bin"
  },
  {
    "SEQUENCE CODE": "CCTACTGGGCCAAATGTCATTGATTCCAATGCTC",
    "LABEL": "middle bin"
  },
  {
    "SEQUENCE CODE": "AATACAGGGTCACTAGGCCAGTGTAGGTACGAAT",
    "LABEL": "top bin"
  },
  {
    "SEQUENCE CODE": "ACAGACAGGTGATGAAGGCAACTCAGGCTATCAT",
    "LABEL": "bottom bin"
  },
  {
    "SEQUENCE CODE": "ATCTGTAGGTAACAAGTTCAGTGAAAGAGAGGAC",
    "LABEL": "bottom bin"
  }
]

(Q) // return the class label for "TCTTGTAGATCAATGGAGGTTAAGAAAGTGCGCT"
(A) bottom bin

(Q) Kindly identify the class of "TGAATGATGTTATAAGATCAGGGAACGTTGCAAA" .
(A) bottom bin

(Q) Which PBM binding z-score category applies to "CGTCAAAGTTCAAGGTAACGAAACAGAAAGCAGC" here?
(A) middle bin

###

# System: PPARg DBDmut:RXRa IVT, anti-PPARg (DBD mutation: PPARg1 K132A/R137A, NR concentration 270 nM, RXRa partner concentration 90 nM)
# ASSAY TEXT: PBM binding z-score (relative to random genomic background probes); higher = stronger binding; sequences stand for … in GC…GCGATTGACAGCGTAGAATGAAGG
Label class 1 when PBM binding z-score >= 0.5; otherwise class 0.

Some entries whose results are on file:
[
  {
    "SEQUENCE CODE": "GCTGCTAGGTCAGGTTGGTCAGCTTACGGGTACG",
    "LABEL": "class 0"
  },
  {
    "SEQUENCE CODE": "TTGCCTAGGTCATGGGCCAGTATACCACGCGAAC",
    "LABEL": "class 0"
  }
]

(Q) Is PBM binding z-score at least 0.5? Consider "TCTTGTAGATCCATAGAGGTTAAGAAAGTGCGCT"
(A) class 1

(Q) Quick check: does "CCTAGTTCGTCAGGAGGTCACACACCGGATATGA" have PBM binding z-score greater than or equal to 0.5?
(A) class 0

(Q) Threshold query (PBM binding z-score >= 0.5) on "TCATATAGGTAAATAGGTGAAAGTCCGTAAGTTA"
(A) class 1

(Q) Does "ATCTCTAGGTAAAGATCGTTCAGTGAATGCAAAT" have a reported PBM binding z-score of at least 0.5?
(A) class 1

###

Listed here: items and their measured PBM binding z-score.
# System: LXRa:RXRa (NR concentration 270 nM, RXRa partner concentration 90 nM)
# ASSAY TEXT: PBM binding z-score (relative to random genomic background probes); higher = stronger binding; sequences stand for … in GC…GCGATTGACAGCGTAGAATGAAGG
Write no unit; give the number alone.

[
  {
    "SEQUENCE CODE": "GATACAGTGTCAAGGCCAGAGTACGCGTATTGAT",
    "PBM binding z-score": -0.189
  },
  {
    "SEQUENCE CODE": "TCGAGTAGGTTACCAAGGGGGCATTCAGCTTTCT",
    "PBM binding z-score": 4.34
  },
  {
    "SEQUENCE CODE": "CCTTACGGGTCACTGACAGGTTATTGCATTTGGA",
    "PBM binding z-score": 4.13
  },
  {
    "SEQUENCE CODE": "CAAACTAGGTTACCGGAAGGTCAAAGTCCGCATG",
    "PBM binding z-score": 5.04
  },
  {
    "SEQUENCE CODE": "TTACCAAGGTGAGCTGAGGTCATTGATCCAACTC",
    "PBM binding z-score": 4.36
  },
  {
    "SEQUENCE CODE": "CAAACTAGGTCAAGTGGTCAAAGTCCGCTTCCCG",
    "PBM binding z-score": 3.79
  }
]

(Q) Which value of PBM binding z-score has been reported for "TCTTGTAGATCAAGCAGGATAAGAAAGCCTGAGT" in the records?
(A) -0.0477

###

# System: RARg:RXRa (NR concentration 270 nM, RXRa partner concentration 90 nM)
# ASSAY TEXT: PBM binding z-score (relative to random genomic background probes); higher = stronger binding; sequences stand for … in GC…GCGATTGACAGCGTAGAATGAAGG
Okay, here is how we bin by PBM binding z-score: bucket A = under 0.7, bucket B = from 0.7 up to 3, bucket C = 3 and over

Take a look at these entries with their results.
[
  {
    "SEQUENCE CODE": "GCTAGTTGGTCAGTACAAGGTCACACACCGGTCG",
    "MEASURED ON": "RARg:RXRa (NR concentration 270 nM, RXRa partner concentration 90 nM)",
    "LABEL": "bucket C"
  },
  {
    "SEQUENCE CODE": "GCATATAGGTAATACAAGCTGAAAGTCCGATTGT",
    "MEASURED ON": "RARg:RXRa (NR concentration 270 nM, RXRa partner concentration 90 nM)",
    "LABEL": "bucket A"
  }
]

(Q) Which PBM binding z-score category applies to "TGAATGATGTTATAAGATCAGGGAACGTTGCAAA" here?
(A) bucket A

(Q) Assign a category based on measured PBM binding z-score for "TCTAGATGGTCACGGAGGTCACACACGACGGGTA" and give only the class name.
(A) bucket C

(Q) Which class is correct for the following sequence? "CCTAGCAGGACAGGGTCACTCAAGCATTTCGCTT"
(A) bucket C

(Q) State the class of the sequence shown: "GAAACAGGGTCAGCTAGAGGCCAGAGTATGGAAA"
(A) bucket C

(Q) Quick check: band for "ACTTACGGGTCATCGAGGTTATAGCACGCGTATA"
(A) bucket C

(Q) Hi there! Could you help me figure out the category for "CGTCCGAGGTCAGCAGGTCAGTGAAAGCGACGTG" please?
(A) bucket C

(Q) Sort "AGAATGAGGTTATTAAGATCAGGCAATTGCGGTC" into one of the categories.
(A) bucket B

(Q) Dear colleague, I would appreciate it if you could identify the bin for "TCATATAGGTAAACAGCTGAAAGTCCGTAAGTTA" and reply at your convenience.
(A) bucket A

(Q) # bin lookup: classify "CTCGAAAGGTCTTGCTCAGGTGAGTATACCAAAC" by its PBM binding z-score
(A) bucket B

(Q) Category of "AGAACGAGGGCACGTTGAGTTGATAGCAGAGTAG" , please.
(A) bucket B

(Q) Band of "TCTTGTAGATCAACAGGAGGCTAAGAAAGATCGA" ?
(A) bucket A

(Q) Where would "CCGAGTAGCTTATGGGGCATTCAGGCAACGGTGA" land among the classes by reported PBM binding z-score?
(A) bucket A

(Q) Entry "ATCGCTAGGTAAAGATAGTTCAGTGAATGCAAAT" belongs to which category?
(A) bucket A

(Q) Returns: class label. Input: "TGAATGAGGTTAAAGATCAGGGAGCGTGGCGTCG"
(A) bucket B

###

# maps each entry to its PBM binding z-score
# Tested on: VDR homodimer (NR concentration 270 nM)
# ASSAY TEXT: PBM binding z-score (relative to random genomic background probes); higher = stronger binding; sequences stand for … in GC…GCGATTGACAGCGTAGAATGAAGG
API doc: respond with a numeric literal and nothing else, no unit.

Would you please look over these solved cases?
[
  {
    "SEQUENCE CODE": "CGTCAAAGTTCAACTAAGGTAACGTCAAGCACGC",
    "OBSERVATION TYPE": "PBM binding z-score",
    "RECORDED NUMBER": 3.9
  },
  {
    "SEQUENCE CODE": "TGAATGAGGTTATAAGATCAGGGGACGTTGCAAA",
    "OBSERVATION TYPE": "PBM binding z-score",
    "RECORDED NUMBER": 1.21
  },
  {
    "SEQUENCE CODE": "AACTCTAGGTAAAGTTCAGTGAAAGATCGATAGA",
    "OBSERVATION TYPE": "PBM binding z-score",
    "RECORDED NUMBER": 1.64
  },
  {
    "SEQUENCE CODE": "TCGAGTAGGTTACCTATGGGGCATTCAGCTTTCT",
    "OBSERVATION TYPE": "PBM binding z-score",
    "RECORDED NUMBER": -0.367
  },
  {
    "SEQUENCE CODE": "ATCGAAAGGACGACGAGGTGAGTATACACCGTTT",
    "OBSERVATION TYPE": "PBM binding z-score",
    "RECORDED NUMBER": 0.0497
  }
]

Now look at this entry.
(Q) Sample "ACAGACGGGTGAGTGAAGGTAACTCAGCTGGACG" — what was its PBM binding z-score?
(A) -0.714
